- Test system: CCRF-CEM leukemia
- assay-explanation: NCI tumour cell line growth inhibition, 48 h
Where a SMILES comes first, the peptide text is derived from it. [ ]: non-standard residue; d: D form. The star is where a group is joined. ξ: configuration not given here. ξF = NC(Cc1ccccc1)C(=O)O; Cbz = O=C(OCc1ccccc1)*; Aib = CC(C)(N)C(=O)O
readout-kind: TGI

A selection of reference data follows.
Exercise: Suppose we examine the compound CC(=O)C(C(C)=O)=C1CCCC(O)O1 (stereo not drawn) ; what TGI value has been reported?
Key: > 100 µM

Exercise: So what's the measured TGI for this one? Cc1ccc2[nH]cc(-c3nc(-c4c[nH]c5ncccc45)cs3)c2c1
Key: > 100 µM

Exercise: Name the recorded TGI for CC(C)(NC(=O)OCc1ccccc1)C(=O)NC(Cc1ccccc1)C(=O)O (stereo not drawn) (Cbz-[Aib]-[ξF]-OH) .
Key: > 100 µM

Exercise: Recorded TGI for O=C(c1ccccc1)C(C(=O)c1ccccc1)C1(O)C(=O)c2ccccc2C1=O , please?
Key: 83 µM

Exercise: Request the reported TGI associated with CCCCCc1cc(OC(=O)c2c(O)cc(OC)cc2CCCCC)cc(O)c1C(=O)O
Key: 47.8 µM

Continuing:
Exercise: Give its TGI value. Item: Oc1ccc(Cl)cc1C1=N/C(=N\CN2CCN(C/N=C3/N=C(c4cc(Cl)ccc4O)CC(c4ccccc4)N3)CC2)NC(c2ccccc2)C1 (stereo not drawn)
Key: > 100 µM

Exercise: Need TGI, item O=C(Oc1ccc(Cl)cc1Cl)c1ccccc1Nc1ccnc(C(F)(F)F)c1
Key: > 100 µM

Exercise: If you can, please state the reported TGI value of CCC(CCCN)Nc1cc(OC)cc2cccnc12 (stereo not drawn) .
Key: > 100 µM

Exercise: # TGI lookup, item COC(=O)N[C@H]1CCc2c(Br)c(OC)c(OC)c(OC)c2-c2ccc(SC)c(=O)cc21
Key: 24.9 µM

Exercise: Quick check: TGI of COc1cccc(C2CC(C)(N3CCCC3)Oc3cc4c(cc32)OCO4)c1O (stereo not drawn) ?
Key: > 83.3 µM

* * *

- System: SNB-75 CNS
- assay-explanation: NCI tumour cell line growth inhibition, 48 h
The following compounds are shown together with reported TGI values.

Would you please look over these solved cases?
Exercise: Which value of TGI has been reported for O=C(CNc1nncs1)NO in the records?
Key: > 100 µM

Exercise: Can you look up the measured TGI of COc1ccc2[nH]c(C(=O)N3CC(CCl)c4ccc(N)cc43)cc2c1 (stereo unspecified) for me?
Key: 0.475 µM

Exercise: For the compound shown here, Cn1c(=O)nc2n(-c3ccc(Cl)cc3)c3ccc(Cl)cc3nc-2c1=O , give the reported TGI.
Key: 10.4 µM

Exercise: Please look up its TGI: CCOC(=O)/C(=C\NCC(O)c1ccccc1)c1nc2ccccc2[nH]1 (stereo unspecified)
Key: 58.2 µM

Exercise: Would you kindly share the measured TGI for COc1cccc2cc(C)c(C(=O)c3ccccc3)nc12 ?
Key: > 100 µM

Further cases:
Exercise: # input compound: CC(C)(C)OC(=O)n1cc(C2CNC(=O)C23CCC(=O)N3Cc2ccccc2)c2ccccc21 (stereo unspecified) ; wanted: its TGI
Key: 38.2 µM

Origin of values: PubChem BioAssay (NCI)
